# System: Aggregatibacter actinomycetemcomitans
# assay-info: Evaluated for the in vitro minimum bactericidal concentration (MBC) against periopathogenic Actinobacillus actinomycetemcommitans bacteria
# Assay type: functional
measured-endpoint: MBC (µg/mL)

{"smi": "N=C(NCCCCCCNC(=N)NC(=N)Nc1ccc(Cl)cc1)NC(=N)Nc1ccc(Cl)cc1", "measured-result": 0.5}
{"smi": "CN(C)[C@@H]1C(O)=C(C(N)=O)C(=O)[C@@]2(O)C(O)=C3C(=O)c4c(O)cccc4[C@@](C)(O)[C@H]3C[C@@H]12", "measured-result": 0.5}
{"smi": "CCCC(=O)c1ccc(O)c(-c2nc3cc(C(F)(F)F)ccc3[nH]2)c1", "measured-result": 5}
{"smi": "Cc1ccc2[nH]c(-c3ccccc3O)nc2c1", "measured-result": 1}
{"smi": "Oc1c(Br)cc(Br)cc1-c1nc2cc(C(F)(F)F)ccc2[nH]1", "measured-result": 1}
{"smi": "O=C(Nc1ccc(Br)cc1)c1cc(Br)cc(Br)c1O", "measured-result": 0.5}
{"smi": "Oc1c(Br)cc(Br)cc1-c1nc2cc(Cl)ccc2[nH]1", "measured-result": 5}
